Every entry's value here was drawn from PubChem BioAssay.

TARGET DESC: Dihydroorotate dehydrogenase (quinone), mitochondrial (Plasmodium falciparum (isolate 3D7)) (UniProt Q08210)
Sequence (Q08210 whole entry, looked up): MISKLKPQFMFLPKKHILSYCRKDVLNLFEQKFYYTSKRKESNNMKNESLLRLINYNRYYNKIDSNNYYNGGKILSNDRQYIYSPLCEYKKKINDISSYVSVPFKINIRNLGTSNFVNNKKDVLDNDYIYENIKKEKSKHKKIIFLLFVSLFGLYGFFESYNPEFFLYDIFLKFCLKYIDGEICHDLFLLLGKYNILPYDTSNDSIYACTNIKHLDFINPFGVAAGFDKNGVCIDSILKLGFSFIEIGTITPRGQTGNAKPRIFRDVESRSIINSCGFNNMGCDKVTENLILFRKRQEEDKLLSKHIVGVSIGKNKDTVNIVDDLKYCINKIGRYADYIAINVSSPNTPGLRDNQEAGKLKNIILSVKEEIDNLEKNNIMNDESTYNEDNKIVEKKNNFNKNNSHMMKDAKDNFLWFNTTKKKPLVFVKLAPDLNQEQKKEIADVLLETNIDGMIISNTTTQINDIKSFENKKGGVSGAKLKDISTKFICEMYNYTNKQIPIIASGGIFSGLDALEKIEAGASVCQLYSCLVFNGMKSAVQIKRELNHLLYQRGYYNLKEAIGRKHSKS
ASSAY PROCEDURE: PfDHODH enzyme inhibitors, primary screen, biochemical, C-terminal His tag, absorbance 600 nm (AID 1175);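 also: recombinant parasite enzyme with a five histidine tag at its C terminus; test concentration not given here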
PROTOCOL CONDITIONS: DCIP absorbance 600 nm, higher = more signal, called active from +8 up or from −8 down
OBSERVATION TYPE: composite z-score
Simply state the number, no unit and no words.

Entry COc1ccc(NN2C(C(O)c3cc(OC)c(OC)c(OC)c3)C=CC3C(=O)N(C4CCCCC4)C(=O)C32)cc1 (centres undefined) , composite z-score reported as -0.41

Entry `C=CC[C@@]12N=C(c3ccc(OCCCO)cc3)O[C@@H]1c1ccccc1CN(Cc1ccccc1)C2=O` , composite z-score reported as 1.27

Entry `O=C1C[C@@](C(=O)NCCN2CCOCC2)(c2ccc([N+](=O)[O-])cc2)[C@@H](c2ccc(CO)cc2)N1C1CCCCC1` , composite z-score reported as 0.231

Entry `C[N+](C)(C)CCCCNC(=O)[C@H]1C[C@H]2C(=O)NCC(=O)N2[C@H]1c1cccc(OCCO)c1` , composite z-score reported as -29.2

###

System: Sam68 (KHDRBS1)
ASSAY PROCEDURE: Sam68 small-molecule binders, primary screen, biochemical, small-molecule microarray, 635 nm fluorescence (AID 1125);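 also: score merges 667 nm channel intensity with signal to noise over triplicate slides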
PROTOCOL CONDITIONS: small-molecule microarray binding, higher = more signal
# cutoff 1 applies to composite z-score; >= gives Criterion met, < gives Criterion not met

Is reported composite z-score greater than or equal to 1 here: `COCCOC(=O)N1C(=O)[C@@]2(c3cc(C#CC4(O)CCCCCC4)ccc31)[C@H](C(=O)N1CCCCCCC1)[C@H]1C(=O)O[C@H](c3ccccc3)[C@H](c3ccccc3)N1[C@@H]2c1ccc(O)cc1`
Criterion met

Is reported composite z-score greater than or equal to 1 here: `CCN1C(C)=C(C(=O)OC)[C@@H](c2ccccc2)N2C(=O)[C@@]3(C(=O)OC)O[C@@]12[C@@H]1C(=O)N(c2ccccc2)C(=O)[C@@H]13`
Criterion met

Is reported composite z-score greater than or equal to 1 here: CC(C)C[C@@H]1NC(=O)[C@H](CC(C)C)NC(=O)[C@@]23C(=O)N[C@@H](Cc4ccccc4)C2[C@H](C)[C@@]2(C)O[C@H]2C3/C=C/CC/C=C/CNC1=O (some centres not stated)
Criterion met

Is reported composite z-score greater than or equal to 1 here: `CO[C@H]1O[C@H](CO)[C@@H](OC(=O)Nc2ccc(Oc3ccccc3)cc2)[C@H](OC(=O)Nc2ccccc2-c2ccccc2)[C@H]1OC(=O)Nc1ccccc1-c1ccccc1`
Criterion met

Is reported composite z-score greater than or equal to 1 here: `CCCC=C(CCC)[C@@H](NS(=O)(=O)c1ccc(C(F)(F)F)cc1)c1ccc(-c2ccccc2)cc1`
Criterion met

Is reported composite z-score greater than or equal to 1 here: `CC(=O)NCCCC[C@@H]1NC(=O)[C@H]2C[C@@H](C(=O)NCCCCCCN(C)C)[C@@H](c3ccc(O)cc3)N2C1=O`
Criterion met

Is reported composite z-score greater than or equal to 1 here: `C/C(=N\O)C(=O)NCCCCCNC(=O)OCc1ccccc1`
Criterion not met

Is reported composite z-score greater than or equal to 1 here: `COC(=O)Cn1c(C(=O)N2CCCC2)cc2c1C[C@H]1CN(C(=O)c3ccccc3)[C@@](Cc3ccccc3)(C(=O)OC)[C@@H]21`
Criterion not met

Is reported composite z-score greater than or equal to 1 here: `[N-]=[N+]=Nc1ccccc1C[C@@]1(C(=O)N2CCOCC2)N=C(c2ccc(OCCCO)cc2)O[C@@H]1c1ccccc1N=[N+]=[N-]`
Criterion met

Is reported composite z-score greater than or equal to 1 here: `CCOC(=O)[C@H]1C/C=C/C[C@H](C(=O)OCC)C(=O)O[C@H]2[C@@H](OC)O[C@H](CO)[C@@H](OC(=O)Nc3ccc(Br)cc3)[C@@H]2OC1=O`
Criterion met

Is reported composite z-score greater than or equal to 1 here: `O=C(NCC(F)(F)F)[C@@H]1c2ccccc2C(=O)N(Cc2ccccc2Cl)[C@H]1c1ccc(CO)cc1`
Criterion not met

Is reported composite z-score greater than or equal to 1 here: `O=C1O[C@H](c2ccccc2)[C@H](c2ccccc2)N2[C@H]1[C@@H](C(=O)Nc1nc3ccccc3s1)[C@]1(C(=O)Nc3ccc(C#CC4(O)CCCCCC4)cc31)[C@H]2c1ccc(O)cc1`
Criterion met

Is reported composite z-score greater than or equal to 1 here: `C=CC[C@]1(C(=O)O)N=C(c2ccc(OCCCO)cc2)O[C@H]1c1ccccc1N=[N+]=[N-]`
Criterion not met

Is reported composite z-score greater than or equal to 1 here: `COc1cc2c(cc1OC)CN(C(=O)[C@H]1[C@@H]3C(=O)O[C@@H](c4ccccc4)[C@@H](c4ccccc4)N3[C@@H](c3ccccc3OCCO)[C@]13C(=O)Nc1ccc(C#CC4(O)CCCCCC4)cc13)CC2`
Criterion met

Is reported composite z-score greater than or equal to 1 here: Cc1ccccc1C(O)C1C=CC2C(=O)N(c3ccccc3)C(=O)C2N1Nc1ccc(C#N)cc1 (configuration not stated)
Criterion met

Is reported composite z-score greater than or equal to 1 here: `CCOC(=O)C1=CC[C@@H](c2ccc(-c3ccc(OCc4ccccc4)cc3)c(OC)c2)N(S(=O)(=O)c2ccc(C)cc2)[C@H]1c1ccccc1`
Criterion met

Is reported composite z-score greater than or equal to 1 here: O=C1OCC=C[C@H]2OC34C=CCN(Cc5ccccc5)C(=O)[C@H]3N(CCO)C(=O)[C@@H]4[C@@H]12 (some centres not stated)
Criterion not met

Is reported composite z-score greater than or equal to 1 here: `CCCNC(=O)[C@@H]1c2ccccc2C(=O)N(C2CCCCC2)[C@H]1c1ccc(CO)cc1`
Criterion met

Is reported composite z-score greater than or equal to 1 here: `Cc1ccc(S(=O)(=O)N2[C@@H](c3ccccc3)C(C(=O)O)=CC[C@H]2c2ccccc2)cc1`
Criterion not met

Is reported composite z-score greater than or equal to 1 here: `C=C(COC)/C(=C/C[C@H](OC(C)=O)c1ccc(OCCO)cc1)c1cnc2ccccc2c1`
Criterion met

Is reported composite z-score greater than or equal to 1 here: `CC(=O)NCCCC[C@@H]1NC(=O)[C@@H]2C[C@H](C(=O)NCCCCCNC(=O)CS)[C@H](c3ccc(O)cc3)N2C1=O`
Criterion not met

Is reported composite z-score greater than or equal to 1 here: `COc1ccc([Si](C)(C)[C@@H]2[C@@H](CC(=O)N(CCO)Cc3ccccc3)O[C@]3(C(=O)N(Cc4cccc(N5CCC5=O)c4)c4ccccc43)[C@H]2C)cc1`
Criterion met

Is reported composite z-score greater than or equal to 1 here: `CO[C@H]1COC(=O)[C@@H](C)NC(=O)CC=C[C@@H](C)[C@H](OC)COC(=O)CC=C[C@@H]1C`
Criterion not met

Is reported composite z-score greater than or equal to 1 here: `COc1cc2c(cc1OC)CN(C(=O)[C@@H]1[C@H]3C(=O)O[C@H](c4ccccc4)[C@H](c4ccccc4)N3[C@H](c3ccccc3OCCO)[C@@]13C(=O)Nc1ccccc13)CC2`
Criterion met

Is reported composite z-score greater than or equal to 1 here: `CCCC=C(CCC)[C@@H](NC(=O)c1ccccc1)c1ccccc1`
Criterion not met

Is reported composite z-score greater than or equal to 1 here: `COCCOC(=O)N1C(=O)[C@@]2(c3cc(C#CCC(C(=O)OC)C(=O)OC)ccc31)[C@H](c1ccccc1OCCO)N1[C@H](c3ccccc3)[C@H](c3ccccc3)OC(=O)[C@H]1[C@@H]2C(=O)N1CCCCCCC1`
Criterion met

Is reported composite z-score greater than or equal to 1 here: O=C(NCC(O)CO)[C@]1(Cc2ccccc2)N=C(c2ccc(OCCCO)cc2)O[C@@H]1c1ccccc1 (some centres not stated)
Criterion met

###

TARGET DESC: Carbonic anhydrase 2 (Homo sapiens) (UniProt P00918)
ASSAY PROCEDURE: CAII small-molecule binders, profiling panel, biochemical, small-molecule microarray, Alexa647-labelled CAII (AID 1122)
PROTOCOL CONDITIONS: CAII-A647 binding fluorescence, higher = more signal
OBSERVATION TYPE: composite z-score

Entry O=C1OCC=C[C@H]2OC34C=CCN(Cc5ccccc5)C(=O)[C@H]3N(CCO)C(=O)[C@@H]4[C@@H]12 (stereo partly drawn) , composite z-score reported as 0.824

Entry `COc1cccc([C@H]2N[C@H](C(=O)O)CC[C@@H]2C)c1` , composite z-score reported as 0.0689

Entry `CC(=O)NCCCC[C@@H]1NC(=O)[C@@H]2C[C@H](C(=O)NCCCCCNC(=O)CS)[C@H](c3ccc(O)cc3)N2C1=O` , composite z-score reported as 0.497

Entry `C[C@]1(C(=O)NCCN2CCOCC2)c2ccccc2C(=O)N(Cc2ccccc2)[C@H]1c1ccc(CO)cc1` , composite z-score reported as 0.733

Entry `COc1cc(CO)cc(I)c1O[C@H]1C=C(C(=O)NCCO)C[C@@H](N(CC2CCCCC2)C(=O)c2cc3ccccc3oc2=O)[C@@H]1O` , composite z-score reported as -0.0979

Entry `C=CC[C@@]12N=C(c3ccc(OCCCO)cc3)O[C@@H]1c1ccccc1CN(Cc1ccccc1)C2=O` , composite z-score reported as 0.496

Entry `CCc1cccc(NC(=O)O[C@H]2[C@H](OC(=O)Nc3ccccc3)[C@@H](OC(=O)Nc3ccccc3)[C@@H](OC)O[C@@H]2CO)c1` , composite z-score reported as 0.806

Entry `CO[C@H]1COC(=O)CC=C[C@@H](C)COC(=O)[C@@H](C)NC(=O)CC=C[C@@H]1C` , composite z-score reported as -0.681
